meta.source: patent US20250333541A1

- System under test: T1, cynomolgus monkey TF-His (cynomolgus monkey, UniProt A0A2K5VX02 33-253)
- T1 construct: range 33-252; Recombinant extracellular segment expressed in HEK293-EBNA cells and purified on a nickel column; also called c.TF-His; c; TF-his; not shown: His tag from vector pTT5-His
- T1 sequence: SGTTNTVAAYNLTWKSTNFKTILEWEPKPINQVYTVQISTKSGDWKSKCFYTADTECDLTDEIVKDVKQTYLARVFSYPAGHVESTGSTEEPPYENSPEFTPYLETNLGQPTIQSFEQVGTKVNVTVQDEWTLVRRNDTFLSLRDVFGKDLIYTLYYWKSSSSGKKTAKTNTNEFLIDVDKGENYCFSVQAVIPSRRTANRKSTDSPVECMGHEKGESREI
- Assay summary: BLI (ForteBio Octet), antibody on ProA sensor, TF-His as analyte
- Procedure: The dynamic affinity of the humanized antibodies was determined by ForteBio. The experimental procedures were as follows: a ProA sensor (18-5010, Octet) was taken out and pre-wetted with a PBST diluent (pH 7.4) for 10 min. The antibodies to be immobilized were diluted to 5 μg/mL. […] The program was set up, the sensor plate and sample plate were put in, then the program started. […] The data were analyzed using Octet analysis software to derive a result graph.
Recorded kon, one value per entry.
Numeric answer only, unit M⁻¹ s⁻¹ assumed.

Task item: kon lookup needed for 2B12B10-hz1 (antibody, human IgG1, kappa, V domains shown, Humanized IgG1 kappa) VH: EVQLVESGGGLVQPGGSLRLSCAASGFAFSDSGMHWVRQAPGKGLEWVAYISRDSNTIYYADSVKGRFTISRDNAKNSLYLQMNSLRAEDTAVYYCGRRYYGDYFDYWGQGTLVTVSS VL: DIVLTQSPATLSLSPGERATLSCRASQRVTNYLHWYQQKPGQSPRLLIKYASQSISGIPARFSGSGSGTDFTLTISSLEPEDFAVYFCQQSYNWPLTFGQGTKVEIKR , thanks.
Reply: 344000
